# SUBJECT_OF_TEST: T1, EsCas13d, nuclease-dead (Eubacterium siraeum, UniProt B0MS50, R295A;H300A;R849A;H854A)
# T1 sequence: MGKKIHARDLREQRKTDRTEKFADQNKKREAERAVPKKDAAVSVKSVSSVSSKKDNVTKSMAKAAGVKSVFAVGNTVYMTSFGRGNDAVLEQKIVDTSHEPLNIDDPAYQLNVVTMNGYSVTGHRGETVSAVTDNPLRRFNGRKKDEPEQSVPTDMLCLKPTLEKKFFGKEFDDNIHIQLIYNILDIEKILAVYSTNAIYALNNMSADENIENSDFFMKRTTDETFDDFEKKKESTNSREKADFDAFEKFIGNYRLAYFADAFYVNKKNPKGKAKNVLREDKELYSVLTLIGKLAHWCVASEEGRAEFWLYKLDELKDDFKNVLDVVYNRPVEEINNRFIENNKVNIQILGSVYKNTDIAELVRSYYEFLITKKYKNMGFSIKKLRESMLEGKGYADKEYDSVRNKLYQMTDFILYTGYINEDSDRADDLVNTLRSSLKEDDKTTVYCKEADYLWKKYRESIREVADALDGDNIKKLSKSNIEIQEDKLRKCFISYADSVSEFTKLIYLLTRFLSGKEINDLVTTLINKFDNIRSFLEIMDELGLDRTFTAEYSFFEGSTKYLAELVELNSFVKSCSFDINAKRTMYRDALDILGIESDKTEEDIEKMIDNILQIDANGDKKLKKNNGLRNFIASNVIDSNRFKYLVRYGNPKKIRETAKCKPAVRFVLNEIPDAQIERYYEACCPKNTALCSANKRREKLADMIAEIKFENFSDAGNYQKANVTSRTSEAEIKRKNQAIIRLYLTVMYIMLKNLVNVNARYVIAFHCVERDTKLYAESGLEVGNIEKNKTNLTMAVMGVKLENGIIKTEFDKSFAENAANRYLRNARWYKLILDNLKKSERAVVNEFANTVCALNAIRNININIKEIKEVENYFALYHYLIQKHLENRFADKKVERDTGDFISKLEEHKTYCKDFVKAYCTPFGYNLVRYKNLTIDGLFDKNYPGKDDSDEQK
# METHOD_SUMMARY: crRNA (strand 1, pre-loaded); Mg2+; 40 mM Tris-HCl pH 7.5, 150 mM NaCl, 6 mM MgCl2, 1 mM DTT, 0.1% Tween-20, 0.2 mg/ml BSA; 25 C; 10 min per concentration, then washed
# CONDITION_INFO: tags: His6-TwinStrep-SUMO cleaved; N-terminal SNAP kept (SNAP-Surface 488); label: 3' end held by stalled T7 RNA polymerase
EXPERIMENTAL_ENDPOINT: Kd (nM)
Give just the number in nM; leave the unit off.

[[record]]
binder = "target 2 MT 5'PFS GCU 3'PFS UAC (mixed) RNA 1: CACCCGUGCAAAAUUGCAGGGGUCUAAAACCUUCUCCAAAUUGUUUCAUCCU RNA 2: GGGAAUGGAUCCACAUCUACGAAUUCGCUAGGAUGAAACAAUUUGGAGAAGUACAGAUCGGAAGAGCACACGU"
recorded_result = 13.2


Req: Given the entry target 2 MT 5'PFS GUC 3'PFS UUA (mixed) RNA 1: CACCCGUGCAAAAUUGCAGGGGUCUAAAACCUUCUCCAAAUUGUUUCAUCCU RNA 2: GGGAAUGGAUCCACAUCUACGAAUUCGUCAGGAUGAAACAAUUUGGAGAAGUUAAGAUCGGAAGAGCACACGU , report its measured Kd.
Resp: 31

Req: What measured Kd goes with target 1 insG 3' of 2,insU 3' of 2 (mixed) RNA 1: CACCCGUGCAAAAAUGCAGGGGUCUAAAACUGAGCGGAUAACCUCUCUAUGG RNA 2: GGGAAUGGAUCCACAUCUACGAAUUCGUACCAUAGAGAGGUUAUCCGCUCGUACCGAGAUCGGAAGAGCACACGU ?
Resp: 8.9

Req: # lookup: Kd of target 2 MT 5'PFS UUG 3'PFS AAU (mixed) RNA 1: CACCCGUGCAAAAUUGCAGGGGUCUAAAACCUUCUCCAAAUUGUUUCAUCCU RNA 2: GGGAAUGGAUCCACAUCUACGAAUUCUUGAGGAUGAAACAAUUUGGAGAAGAAUAGAUCGGAAGAGCACACGU
Resp: 9.8
